- studySystem: T315A Abl (Homo sapiens, UniProt P00519, T315A)
- Sequence (P00519 242-493 T315A limits assumed): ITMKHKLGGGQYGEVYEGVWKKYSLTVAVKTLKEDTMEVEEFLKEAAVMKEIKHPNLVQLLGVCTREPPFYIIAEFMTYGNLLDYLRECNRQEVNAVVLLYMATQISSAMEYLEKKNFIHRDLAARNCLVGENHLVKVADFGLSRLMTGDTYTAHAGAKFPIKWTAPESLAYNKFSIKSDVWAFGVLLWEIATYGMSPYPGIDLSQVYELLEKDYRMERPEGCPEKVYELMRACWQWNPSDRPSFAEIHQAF
- procedureSummary: In vitro kinase assay, T315A Abl
- Type: biochemical
- runParameters: Table 1a
- Protocol: Kinase reactions were initiated by the addition of […] cold ATP supplemented with 5 mCi γ^32P ATP and allowed to proceed at room temperature (RT). […] The sheets were washed five times in buffer, dried, and transferred radioactivity was measured by phosphorimaging using a TyphoonTM scanner (Molecular Dynamics). Radioactive counts were quantified using ImageQuantTM software, and titration data were fit to a sigmoidal dose response to derive IC50 values using the Prism® software package. […]
pIC50: −log10 of the molar value.
property: pIC50

1. Cn1nc(Cc2cccc(NC(=O)c3cccc(C(F)(F)F)c3)c2)c2c(N)ncnc21 > 6.00
2. Nc1ncnc2c1c(Cc1cccc(NC(=O)c3cccc(C(F)(F)F)c3)c1)nn2CC1CC1 > 6.00
3. Nc1ncnc2c1c(Cc1cccc(NC(=O)c3cccc(C(F)(F)F)c3)c1)nn2Cc1ccccc1 5.30 to 6.00
4. Nc1ncnc2c1c(Cc1cccc(NC(=O)Nc3cccc(C(F)(F)F)c3)c1)nn2C1CCCC1 > 6.00
5. CC(C)(C)n1nc(Cc2cccc(NC(=O)Nc3cccc(C(F)(F)F)c3)c2)c2c(N)ncnc21 > 6.00
6. CC(C)(C)n1nc(Cc2cccc(NC(=O)c3cccc(C(F)(F)F)c3)c2)c2c(N)ncnc21 > 6.00
